method.description: In vivo pharmacokinetic study, IP in mice
setup.conditions: male, C57 BL6, brain/plasma, ip; mouse, intraperitoneal 10 mg/kg, 30 min after administration
assay.readout: Kp at 0.5 h
Form rule: numeric answer, no unit written next to it.

Reported Kp at 0.5 h for Cc1cc(NC(=O)Nc2ccc(F)c(F)c2)n(-c2ccccc2)n1 [VU0456810] was 0.2

###

experimental.target: GIRK1/2 (Homo sapiens, UniProt P48051+P48549)
Sequence (P48549 whole entry): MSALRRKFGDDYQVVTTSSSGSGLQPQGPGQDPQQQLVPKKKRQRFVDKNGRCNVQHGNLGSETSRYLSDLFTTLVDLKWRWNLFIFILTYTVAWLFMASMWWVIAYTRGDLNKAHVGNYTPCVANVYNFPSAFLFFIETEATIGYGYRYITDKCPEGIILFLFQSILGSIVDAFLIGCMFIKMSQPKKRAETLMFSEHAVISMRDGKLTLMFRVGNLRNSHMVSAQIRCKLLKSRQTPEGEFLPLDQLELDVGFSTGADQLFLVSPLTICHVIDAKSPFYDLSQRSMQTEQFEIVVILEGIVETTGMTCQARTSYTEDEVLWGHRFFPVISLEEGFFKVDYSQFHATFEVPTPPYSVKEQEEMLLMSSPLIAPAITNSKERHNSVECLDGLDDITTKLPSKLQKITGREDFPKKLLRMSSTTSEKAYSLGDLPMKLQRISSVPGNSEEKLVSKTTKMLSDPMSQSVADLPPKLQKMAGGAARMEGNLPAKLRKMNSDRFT
Sequence (P48051 whole entry): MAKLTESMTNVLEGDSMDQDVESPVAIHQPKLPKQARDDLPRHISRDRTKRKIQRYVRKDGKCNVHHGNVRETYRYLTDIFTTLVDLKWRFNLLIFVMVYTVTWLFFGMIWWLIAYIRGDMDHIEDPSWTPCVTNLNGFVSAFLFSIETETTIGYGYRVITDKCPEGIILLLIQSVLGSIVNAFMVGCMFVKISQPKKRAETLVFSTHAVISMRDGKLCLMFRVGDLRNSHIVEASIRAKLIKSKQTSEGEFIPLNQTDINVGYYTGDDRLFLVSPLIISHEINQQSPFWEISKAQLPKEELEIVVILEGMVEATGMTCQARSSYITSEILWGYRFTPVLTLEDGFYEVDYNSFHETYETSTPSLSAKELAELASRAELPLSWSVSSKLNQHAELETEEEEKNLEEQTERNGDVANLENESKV
method.description: Whole-cell voltage-clamp, GIRK1/2-expressing HEK-293 cells
Type: cell-based
Parameters: host or cells: HEK-293
setup.conditions: cell line GIRK1-2; average ± SEM
assay.readout: EC50 (nM)
Just the number please, in nM, no unit attached.

Field EC50 (system: GIRK1/2 (Homo sapiens, UniProt P48051+P48549)) for entry Cc1cc(NC(=O)Nc2ccc(F)c(F)c2)n(-c2ccccc2)n1 [VU0456810] = 584
